Test system: HCT116 PARP-1+/+ cells
Experiment: cell viability, resazurin reduction assay, HCT116 PARP-1+/+
Conditions: Homo sapiens, HCT-116, 72 h, read-out: IC50-values HCT116 PARP1+/+
pIC50: −log10 of the molar value.
outcome.measure: pIC50

P: CCc1c2c(nc3ccc(OC(=O)N4CCC(N5CCCCC5)CC4)cc13)-c1cc3c(c(=O)n1C2)COC(=O)[C@]3(O)CC [IT, irinotecan]
Q: O=c1[nH]cc(F)c(=O)[nH]1 [5-FU, 5-fluorouracil]
Kindly identify the item with the lower pIC50 figure among these two: P and Q Kindly state the label of the option you pick. P

###

System: human colonic epithelial cells (HCEC)
Experiment: cell viability, resazurin reduction assay, HCEC
Details: nonmalignant HCEC, 72 h, up to 50 µM
outcome.measure: cell viability, monotreatment

Give the value of cell viability, monotreatment reported for the following: O=C(O)C1=NNC(=O)c2cccc3[nH]cc1c23 no effect on HCEC

Give the value of cell viability, monotreatment reported for the following: C[C@]1(c2nc3c(C(N)=O)cccc3[nH]2)CCCN1 no effect on HCEC

Give the value of cell viability, monotreatment reported for the following: CNC(=O)C1CC(=O)c2cccc3[nH]c(C)c1c23 (stereo not shown) no effect on HCEC

###

Target: PARP-1 (Homo sapiens, UniProt P09874)
Sequence (P09874 whole entry): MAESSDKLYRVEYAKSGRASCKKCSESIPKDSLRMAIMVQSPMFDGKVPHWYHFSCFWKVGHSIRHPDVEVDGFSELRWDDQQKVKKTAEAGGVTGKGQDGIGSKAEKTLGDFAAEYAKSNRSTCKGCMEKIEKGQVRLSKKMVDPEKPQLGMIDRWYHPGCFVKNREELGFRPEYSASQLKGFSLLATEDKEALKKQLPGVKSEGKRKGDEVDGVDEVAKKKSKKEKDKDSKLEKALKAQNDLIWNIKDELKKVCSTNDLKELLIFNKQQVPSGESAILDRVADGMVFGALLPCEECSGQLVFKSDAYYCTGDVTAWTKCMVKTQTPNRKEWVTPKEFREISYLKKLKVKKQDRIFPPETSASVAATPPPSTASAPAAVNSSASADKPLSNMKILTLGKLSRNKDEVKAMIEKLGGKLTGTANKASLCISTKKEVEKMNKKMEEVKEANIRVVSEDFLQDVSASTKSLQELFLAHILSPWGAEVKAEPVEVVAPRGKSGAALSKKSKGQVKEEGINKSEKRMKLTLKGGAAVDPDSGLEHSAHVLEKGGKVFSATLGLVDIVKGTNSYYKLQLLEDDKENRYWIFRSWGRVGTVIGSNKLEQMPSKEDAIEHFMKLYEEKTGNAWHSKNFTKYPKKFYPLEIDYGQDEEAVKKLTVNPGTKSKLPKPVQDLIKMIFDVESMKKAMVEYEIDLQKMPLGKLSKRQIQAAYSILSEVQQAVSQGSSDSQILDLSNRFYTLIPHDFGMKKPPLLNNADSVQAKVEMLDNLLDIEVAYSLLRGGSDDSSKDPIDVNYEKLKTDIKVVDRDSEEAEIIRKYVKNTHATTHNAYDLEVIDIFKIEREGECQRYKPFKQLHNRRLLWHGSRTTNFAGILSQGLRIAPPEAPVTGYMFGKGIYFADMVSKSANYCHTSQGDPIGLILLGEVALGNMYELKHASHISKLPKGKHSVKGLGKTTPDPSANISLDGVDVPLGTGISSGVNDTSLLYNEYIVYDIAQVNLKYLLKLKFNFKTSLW
Assay: chemiluminescence-based PARP-1 assay kit (recombinant enzyme)
Details: IC50 PARP-1 screening assay kit
outcome.measure: IC50 (µM)
Numeric answer only, unit µM assumed.

Give the value of IC50 reported for the following: O=C(O)C1=NNC(=O)c2cccc3[nH]cc1c23 0.041

###

Tested on: Caco-2 cells
Assay: cell viability, resazurin reduction assay, Caco-2
Conditions: Homo sapiens, Caco-2, 72 h, read-out: IC50-values Caco-2
pIC50: −log10 of the molar value.
outcome.measure: pIC50

Give the value of pIC50 reported for the following: O=C(c1cc(Cc2n[nH]c(=O)c3ccccc23)ccc1F)N1CCN(C(=O)C2CC2)CC1 < 4.30

Give the value of pIC50 reported for the following: O=C(O)C1=NNC(=O)c2cccc3[nH]cc1c23 < 4.30

Give the value of pIC50 reported for the following: CCc1c2c(nc3ccc(OC(=O)N4CCC(N5CCCCC5)CC4)cc13)-c1cc3c(c(=O)n1C2)COC(=O)[C@]3(O)CC 4.18

Query compound follows.
Give the value of pIC50 reported for the following: CNC(=O)C1CC(=O)c2cccc3[nH]c(C)c1c23 (stereo not shown) < 4.30

###

Tested on: DLD-1 ATRs/s cells
Assay: cell viability, resazurin reduction assay, DLD-1 ATRs/s
Conditions: Homo sapiens, DLD-1, 72 h, read-out: IC50-values DLD-1 ATRs/s
pIC50: −log10 of the molar value.
outcome.measure: pIC50

Give the value of pIC50 reported for the following: O=C(c1cc(Cc2n[nH]c(=O)c3ccccc23)ccc1F)N1CCN(C(=O)C2CC2)CC1 [Olaparib, olaparib] 5.70

P: O=c1[nH]cc(F)c(=O)[nH]1 [5-FU, 5-fluorouracil]
Q: CCc1c2c(nc3ccc(OC(=O)N4CCC(N5CCCCC5)CC4)cc13)-c1cc3c(c(=O)n1C2)COC(=O)[C@]3(O)CC [IT, irinotecan]
Please state the entry with greater pIC50 among P and Q . Kindly state the label of the option you pick. P
(P: 6.66, Q: 5.52)

###

Tested on: Caco-2 cells
Assay: cell viability, resazurin reduction assay, Caco-2
Conditions: read-out: IC50-values Caco-2; 72 h, RRA
pIC50: −log10 of the molar value.
outcome.measure: pIC50

Quote Caco-2 cells pIC50 for entry C[C@]1(c2nc3c(C(N)=O)cccc3[nH]2)CCCN1 . < 4.30

###

Test system: HCT116 PARP-1+/+ cells
Test: cell viability, resazurin reduction assay, HCT116 PARP-1+/+
Details: read-out: IC50-values HCT116 PARP1+/+; 72 h, RRA
outcome.measure: pIC50
Note on units: pIC50 is unitless, being -log10 of a concentration expressed in mol/L.

Give the value of pIC50 reported for the following: O=C1[O][Pt]2([NH][C@@H]3CCCC[C@H]3[NH]2)[O]C1=O 6.15

###

System: human colonic epithelial cells (HCEC)
Test: cell viability, resazurin reduction assay, HCEC
Settings: Homo sapiens, HCEC, 72 h, read-out: IC50-values HCEC
outcome.measure: pIC50
Note on units: pIC50 is unitless, being -log10 of a concentration expressed in mol/L.

Give the value of pIC50 reported for the following: CCc1c2c(nc3ccc(OC(=O)N4CCC(N5CCCCC5)CC4)cc13)-c1cc3c(c(=O)n1C2)COC(=O)[C@]3(O)CC 5.53

Give the value of pIC50 reported for the following: O=c1[nH]cc(F)c(=O)[nH]1 4.58

###

System: human colonic epithelial cells (HCEC)
Test: cell viability, resazurin reduction assay, HCEC
Conditions: Homo sapiens, HCEC, 72 h, read-out: IC50-values HCEC
pIC50: −log10 of the molar value.
outcome.measure: pIC50

Give the value of pIC50 reported for the following: O=C(O)C1=NNC(=O)c2cccc3[nH]cc1c23 < 4.30

Give the value of pIC50 reported for the following: CNC(=O)C1CC(=O)c2cccc3[nH]c(C)c1c23 (stereo not drawn) < 4.30

Query molecule follows.
Give the value of pIC50 reported for the following: O=C(c1cc(Cc2n[nH]c(=O)c3ccccc23)ccc1F)N1CCN(C(=O)C2CC2)CC1 < 4.30
